Overview of recorded melting point for various molecules

Consider the worked cases shown below.
[
  {
    "chem smiles": "Oc1cc2ncnc(N3CCc4ccc(Cl)cc43)c2[nH]1",
    "measured result": "250 °C (dec.)"
  },
  {
    "chem smiles": "Cc1cc2c(Nc3ccc(F)c(C)c3)ncnc2cn1.Cl",
    "measured result": "246 to 250 °C"
  },
  {
    "chem smiles": "Cc1cc2c(Nc3ccc(F)c(Cl)c3)ncnc2cn1.Cl",
    "measured result": "251 to 258 °C"
  }
]

get_value(item= "C#Cc1cccc(Nc2ncnc3cnc(C)cc23)c1.Cl" , readout=melting point) returns 250 to 252 °C

get_value(item= "Cc1cc2c(N3CCc4c(Br)ccc(C)c43)ncnc2cn1.Cl" , readout=melting point) returns 232 to 244 °C

get_value(item= "Cc1cc2c(Nc3ccc(O)c(C)c3)ncnc2cn1.Cl.Cl" , readout=melting point) returns 298 to 305 °C
